// pIC50 lookup, one value per entry
procedureDetails: Cytotoxicity against mouse J774.G8 cells after 72 hrs by MTS assay
Assay type: cell-based
// returns pIC50 (minus log10 of molar concentration), number only

1. Cc1cccc(C)c1/C=C/S(=O)(=O)c1ccccc1: 3.15

Prompt: Reported pIC50 for Cc1cc(O)c(O)c(S(=O)(=O)c2ccc(N)cc2)c1 : what is it?
Completion: 4.56

Prompt: CCCCS(=O)(=O)CCOC(=O)c1ccc([N+](=O)[O-])cc1 , same question.
Completion: 4.47

###

procedureDetails: Cytotoxicity against mouse J774.G8 cells after 72 hrs by MTS assay
Type: cell-based
quantityMeasured: IC50

1) O=S(=O)(c1cccc(S(=O)(=O)c2cc(O)ccc2O)c1)c1cc(O)ccc1O: > 1180 µM
2) Cc1ccc(S(=O)(=O)c2ccc3ccccc3c2)cc1: > 1770 µM

Prompt: # query: IC50 of entry CC(C)(C)S(=O)(=O)CC(=O)c1ccc(Cl)cc1Cl
Completion: > 1620 µM
